assay: inhibitors of hydroxyurea-induced Chk1 phosphorylation, primary screen, imaging, HeLa, phospho-Chk1 nuclear intensity (AID 1187); details: hydroxyurea-induced phospho-Chk1 immunofluorescence imaging, higher = more signal; further: test concentration not given here
value_type: z-score
Write the value as a bare number.

Look over these answered cases.
C=C(/C(=C/C[C@H](OC(C)=O)c1ccc(OCCO)cc1)c1cnc2ccccc2c1)C(C)C :: -0.38
[N-]=[N+]=Nc1ccccc1C[C@@]1(C(N)=O)N=C(c2ccc(OCCCO)cc2)O[C@@H]1c1ccccc1 :: -0.449
CC(C)NC(=O)[C@@]1(c2ccc([N+](=O)[O-])cc2)CC(=O)N(CC23CC4CC(CC(C4)C2)C3)[C@@H]1c1ccc(CO)cc1I :: 1.16
Cc1ccc(S[C@]2(C(=O)O)CC(=O)N(Cc3ccccc3)[C@@H]2c2ccc(CO)cc2I)cc1 :: -0.134
C=CCOC(=O)[C@H]1[C@@H]2C(=O)O[C@@H](c3ccccc3)[C@@H](c3ccccc3)N2[C@@H](c2ccc(OCCOC(=O)[C@H]3C[C@H]4C(=O)N[C@@H](Cc5ccccc5)C(=O)N4[C@H]3c3ccc(O)cc3)cc2)[C@]12C(=O)Nc1ccccc12 :: 0.685
COC(=O)c1c(CC[C@@H](CO)NC(=O)N[C@H](Cc2ccccc2)Cn2cc(-c3ccccc3N)nn2)oc(C(C)=O)c1C(=O)OC :: 0.189

Qu. Bench note: what z-score did `NC(=O)NCC#Cc1ccc2c(c1)[C@]1(C(=O)N2)[C@H](c2ccc(O)cc2)N2[C@H](c3ccccc3)[C@H](c3ccccc3)OC(=O)[C@H]2[C@@H]1C(=O)N1CCCCCCC1` show?
Ans. -0.693

----------
We begin with a simple list: items and their reported composite z-score.
tested on: Lefty1; test: Lefty1 binders on small-molecule microarrays, primary screen, biochemical, small-molecule microarray, 635/667 nm fluorescence (AID 1139); settings: small-molecule microarray binding, fluorescence 635/667; higher = more signal
Write the value as a bare number.

Look over these answered cases.
CC(CCN1CCc2nc(-c3ccccc3)c(-c3ccccc3)cc2C1)=NO[C@H](C)c1cn([C@@H]2COC[C@H]2O)nn1 :: 0.712
CCCNC(=O)OC[C@H]1O[C@H](CCON=C[C@@H](OC)[C@H](C)C=CCC(=O)OC)C=C[C@@H]1Oc1ccc(OC)cc1 :: 0.548
CC(C)=CCCC(C)=CCON=C1C[C@@H](O)[C@@H](O)[C@@H]2[C@@H]3C(=O)N(C[C@@H]4CCCO4)C(=O)[C@@H]3CC[C@@H]12 :: 1.26
CCOC(=O)[C@H](Cc1ccccc1)NC(=O)CCC1CC(OC(=O)NCCc2ccc(F)cc2)CC2(CCCC(COC(=O)NCC(c3ccccc3)c3ccccc3)O2)O1 (stereo partly drawn) :: 0.68
O=C1[C@H]2[C@H]3[C@H](O)[C@H](O)CC(=NO[C@@H]4O[C@H](CO)[C@@H](O)[C@H](O)[C@H]4O)[C@H]3CC[C@H]2C(=O)N1Cc1ccccc1 :: 0.358

Qu. Bench note: what composite z-score did `COC(=O)[C@]1(CO)N=C(c2ccc(OCCCO)cc2)O[C@@H]1c1ccccc1N=[N+]=[N-]` show?
Ans. 0.83

Qu. Bench note: what composite z-score did `Cc1cc(C)c(-c2cc([C@H](C)ON=C3[C@H]4CCn5c(=O)n(-c6ccccc6)c(=O)n5[C@H]4[C@H](O)[C@@H]4O[C@H]34)on2)c(C)c1` show?
Ans. 0.652

Qu. Bench note: what composite z-score did `CCCCC(=C=CC[C@H](O)c1ccccc1OCCO)C[C@H](O)COCc1ccccc1` show?
Ans. -0.0107

Qu. Bench note: what composite z-score did `CCOC(=O)C1=CC[C@H]2C(=O)N(CC)C(=O)[C@@H]12` show?
Ans. 0.443

Qu. Bench note: what composite z-score did `CC(=O)OC[C@H]1O[C@H](C#CCCCc2ccccc2)C=C[C@@H]1OC(C)=O` show?
Ans. 0.696

Qu. Bench note: what composite z-score did `CCN1C(=O)[C@H]2[C@H]3[C@H](O)[C@H](O)CC(=NO[C@@H]4O[C@H](CO)[C@@H](O)[C@H](O)[C@H]4O)[C@@H]3CC[C@H]2C1=O` show?
Ans. 0.232

Qu. Bench note: what composite z-score did `COC(=O)CC=C[C@@H](C)[C@@H](C=NO[C@H](C)c1cn([C@@H]2COC[C@H]2O)nn1)OC` show?
Ans. 0.645

Qu. Bench note: what composite z-score did `COc1ccc([Si](C)(C)[C@H]2[C@H](CC(=O)N3CCC[C@H]3CO)O[C@@]3(C(=O)N(Cc4cccc(N5C(=O)COc6ccccc65)c4)c4ccccc43)[C@@H]2C)cc1` show?
Ans. 0.994

The reported numbers originate from PubChem BioAssay.
